organism: Mus musculus; test: Analgesic activity in mice by mouse phenylquinone writhing assay relative to aspirin.; format: functional
# key: entry, value: Activity
Response field accepts a number only; no unit should be typed.

Look over these answered cases.
Input: Quote Activity reported for "O=C(O)Cc1cc(O)c2c(c1)CCc1ccccc1C2=O" please.
Output: 4

Input: Give Activity for O=C(O)Cc1ccc2c(c1)OCc1ccccc1C2=O [OXEPINAC]
Output: 4

Input: # return recorded Activity for entry "O=C(O)Cc1ccc2c(=O)c3ccccc3ccc2c1"
Output: 2

Input: Report measured Activity; entry is COc1ccc2c(c1)c(CC(=O)O)c(C)n2C(=O)c1ccc(Cl)cc1 [INDOMETHACIN]
Output: 60

Input: Determine from records and report Activity for CC(C(=O)O)c1ccc2c(=O)c3ccccc3ccc2c1 (stereo unspecified)
Output: 20

Query molecule follows.
Input: Indicate its recorded Activity; the molecule in question is CC(C(=O)O)c1cccc(C(=O)c2ccccc2)c1 (stereo unspecified) [KETOPROFEN]
Output: 60
